Reference source for all entries: the Immune Epitope Database (IEDB)

target: HLA-A*68:02; assay: IEDB peptide-MHC binding, purified MHC/direct/fluorescence; filed as Kd, often an IC50 or EC50 that approximates it; bounds were set here for any values at or beyond the usual limits of such assays; conditions: source organism: Giardia lamblia ATCC 50803
pKd: −log10 of the molar value.
ENDPOINT: pKd

Field pKd (entry RIGGVLIFR ) reads ≤ 4.70

====

biological target: HLA-A*24:02; test: IEDB peptide-MHC binding, purified MHC/competitive/radioactivity; filed as Kd, often an IC50 or EC50 that approximates it; bounds were set here for any values at or beyond the usual limits of such assays; details: source organism: Influenza A virus (A/Wilson-Smith/1933(H1N1))
ENDPOINT: pKd
The scale used: pKd is minus the common logarithm of the concentration in molar units.

Kindly note: HLA-A*24:02, DQHGRMNYYW , pKd value reported: 5.83
